# Lookup of reported log10(EC50) keyed by entry
tested.target: human RXFP1 (Homo sapiens)
Construct: expressed in transfected cells
Sequence (Q9HBX9 whole entry): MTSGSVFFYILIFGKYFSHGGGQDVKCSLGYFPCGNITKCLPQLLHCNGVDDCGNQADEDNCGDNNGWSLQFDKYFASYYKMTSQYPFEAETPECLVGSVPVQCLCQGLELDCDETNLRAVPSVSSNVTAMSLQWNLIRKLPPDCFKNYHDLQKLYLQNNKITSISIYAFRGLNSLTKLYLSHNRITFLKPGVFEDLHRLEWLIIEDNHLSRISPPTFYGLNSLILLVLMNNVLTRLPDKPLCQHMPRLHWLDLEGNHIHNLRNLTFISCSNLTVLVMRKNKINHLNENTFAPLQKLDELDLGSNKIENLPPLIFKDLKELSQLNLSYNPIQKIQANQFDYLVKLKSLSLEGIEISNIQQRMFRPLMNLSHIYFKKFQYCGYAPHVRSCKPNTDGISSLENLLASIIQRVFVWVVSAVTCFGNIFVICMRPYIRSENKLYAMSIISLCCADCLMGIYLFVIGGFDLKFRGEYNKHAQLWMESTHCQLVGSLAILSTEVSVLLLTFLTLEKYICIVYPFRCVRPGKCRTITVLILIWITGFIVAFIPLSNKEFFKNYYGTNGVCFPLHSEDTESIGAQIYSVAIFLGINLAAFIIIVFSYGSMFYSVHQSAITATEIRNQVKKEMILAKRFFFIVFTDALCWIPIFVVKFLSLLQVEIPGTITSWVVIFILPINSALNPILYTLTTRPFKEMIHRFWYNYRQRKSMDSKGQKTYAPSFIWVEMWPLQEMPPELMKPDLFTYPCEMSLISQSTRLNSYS
assay.overview: RXFP1 cAMP assay (hRXFP1 HEK293 cAMP assay, HTRF)
Format: cell-based
assay.conditions: HEK293 cells stably expressing human RXFP1, 30 min at room temperature, read-out: cAMP hRXFP1 HEK293 Assay EC50
Procedure: RXFP1 Cyclic Adenosine Monophosphate (cAMP) Assays. […] Cells were dissociated and suspended in assay buffer. The assay buffer was HBSS buffer (with calcium and magnesium) containing 20 mM HEPES, 0.05% BSA, and 0.5 mM IBMX. […] The level of intracellular cAMP was determined using the HTRF HiRange cAMP assay reagent kit (Cisbio) according to manufacturer's instructions. […]
Each number you see is log10 of EC50, and the unit inside the log is nM.

get_value(item= COc1cc(C)c(C2=NOC3CC(CO)CC23)cc1C(=O)N[C@H]1[C@@H](C(=O)Nc2ccc(F)c(C(F)(F)F)c2)[C@H]2CC[C@@H]1C2CC1CC1 (some centres unmarked) , readout=log10(EC50)) returns 0.53

get_value(item= "COc1ccc(-c2cc([C@H](OC(=O)NC3CCC3)C(F)(F)F)ccc2F)cc1C(=O)N[C@H]1[C@@H](C(=O)N[C@H](C)C2(C)CC2)[C@H]2CC[C@@H]1/C2=C\C1CC(F)(F)C1" , readout=log10(EC50)) returns 0.32
